Test system: HEK-293T
Experiment: Incucyte cell viability with HEK293T; also: unitless GR value; below 1 slowed growth and below 0 cell loss
Format: toxicity, cell-based
Conditions: human, 12 h, 10 µM, compound concentration 10 uM, replicate number 2
Kindly state Growth Rate for each of the entries shown.
Keep the answer to the number alone.

Data request, read-out Growth Rate, for CCOc1ccccc1C(=O)NCC1(N2CCN(CC)CC2)CCCCC1
0.31

Moving on to the next compound: O=C(Nc1ccc(OC(F)(F)Cl)cc1)c1cnc(N2CC[C@@H](O)C2)c(-c2ccn[nH]2)c1
-0.17

// query: O=C(Nc1snnc1C(=O)Nc1ccc(N2CCCC2)cc1)c1cncc(C(F)(F)F)c1
0.8

And then CCN1CCN(Cc2ccc(Nc3ncc(F)c(-c4cc(F)c5nc(C)n(C(C)C)c5c4)n3)nc2)CC1.CS(=O)(=O)O , what is it?
0.38

Same question for CCC(=O)Nc1cc(Nc2cc(NC3CC3)n3ncc(C#N)c3n2)ccc1C please.
0.59

Likewise for O=C(Nc1ccc(Cl)nc1)c1ccc(Cl)cc1 ?
0.63

Try the compound CC1CN(CC(=O)N2CC(C)(C)c3nc(CO)c(Cc4ccc(F)cc4)cc32)C(CN2CCOCC2C)CN1 (centres undefined)
0.96

Next: N[C@@H]1CCCN(c2c(/C=C3\SC(=O)NC3=O)cccc2-c2ccccc2)C1
0.79

Try this compound too: COc1cc(Nc2cnc(C#N)c(O[C@H](C)CN(C)C)n2)ncc1-c1cnn(C)c1
-0.4

###

System: U2OS
Assay: Incucyte cell viability with U2OS; also: unitless GR value; below 1 slowed growth and below 0 cell loss
Assay type: toxicity, cell-based
Settings: human, 6 h, 10 µM, compound concentration 10 uM, replicate number 1
Please respond with reported Growth Rate for every item in the list.
Give the value as a plain number.

Requested read-out: Growth Rate. Entry: CC(C)(O)CNC(=O)N1C(=O)N(c2cccc(C(F)(F)F)c2)C2=C(C(=O)CC2)[C@H]1c1ccc(C#N)cc1
0.67

Moving on to Cn1ccc(Cn2cnc(-c3ccc(F)cc3)c2-c2ccnc3[nH]ccc23)n1
0.89

Field entry: Cl.O=c1cc(C2CCNCC2)n2nc3cccc(Cl)c3c2[nH]1
0.98

Same lookup for Cc1ccc(-n2nc(C(C)(C)C)cc2NC(=O)Nc2ccccc2F)cc1 , please.
0.9

Follow-up item: C[S+](C)[O-] [DIMETHYL SULFOXIDE]
0.89

###

Tested on: Fibroblast
Assay: Incucyte cell viability with human fibroblast; also: unitless GR value; below 1 slowed growth and below 0 cell loss
Format: toxicity, cell-based
Details: 24 h, 10 µM, compound concentration 10 uM, replicate number 1
Response key: yes (1) means Growth Rate >= 0.2; no (0) means Growth Rate < 0.2.

Check if Growth Rate >= 0.2 (inclusive). Item: O=C(Nc1ccccc1Cl)c1cnc2ccc(C3CCNCC3)cn12.O=C(O)C(=O)O
no (0)

Cn1c(C2(NC(=O)c3ccc4c(C5CCCC5)c(-c5ncc(Br)cn5)n(C)c4c3)CCC2)nc2ccc(/C=C/C(=O)O)cc21 , same question.
yes (1)

Likewise for Cl.c1ccc2c(c1)CCC[C@H]2Nc1nc2ccccc2[nH]1 ?
yes (1)

One more molecule: CS(=O)(=O)NC(=O)CCC/C=C\C[C@H]1C(=O)C[C@@H](O)[C@@H]1/C=C/[C@@H](O)COc1ccccc1
yes (1)

Please answer likewise for O=c1cc(-c2cc(F)c(Cl)nc2Cl)[nH]c2c(-c3ccccc3)c(C(F)(F)F)nn12
yes (1)

Also, CCC(=O)N[C@@H]1CC[C@H](C(=O)N(C)c2ccc(-c3nc4ccccc4o3)cc2)C1 please.
yes (1)

How about this molecule: CN(C)CCCN1c2ccccc2Sc2ccc(Cl)cc21.Cl [CHLORPROMAZINE HYDROCHLORIDE]
no (0)

Another molecule to check: Clc1ccc(-c2nc3sccn3c2/C=N/OCc2ccc(Cl)c(Cl)c2)cc1
yes (1)

One more molecule: CC(C)(C)c1cnc(CSc2cnc(NC(=O)C3CCNCC3)s2)o1
yes (1)

Now consider Cn1cc(-c2ccc(N(C(=O)NCc3ccccc3)[C@H]3CC[C@H](Nc4ccc(C#N)cn4)CC3)cc2)ccc1=O .
no (0)

And what about the molecule CC(C)(c1ccc(O)cc1)c1ccc(O)cc1 ?
yes (1)

Follow-up entry: CN1CCN(c2ccc(/C=C(\C#N)c3ccccc3Br)cc2)CC1.Cl.Cl
no (0)

Now the same for S=c1[nH]nc(-c2cccs2)n1-c1ccccc1
no (0)

Also O=C1COc2cc(C(=O)N(Cc3ccc(C(=O)Nc4ccncn4)cc3)C3CC3)ccc2N1 , if possible.
yes (1)

Follow-up entry: N#Cc1cccc(-c2nc(-c3cccnc3)no2)c1
no (0)

Try the molecule COc1cc(-c2cncc(-c3cnn(C4CCNCC4)c3)c2)cc(OC)c1OC
yes (1)

Likewise for Cc1cn(CCN2CCN(c3ccccc3-c3cc(C#N)cc(C(=O)NCCCN4CCCC4)c3)CC2)c2ccccc12 ?
no (0)

Record: CCc1cnn2c(NCc3ccc[n+]([O-])c3)cc(N3CCCCC3CCO)nc12 (centres undefined)
yes (1)

Now try COc1cc(-c2cn(C)c(=O)c3cnccc23)c(OC)cc1CN(C)C .
yes (1)

###

Test system: HEK-293T
Assay: Incucyte cell viability with HEK293T; also: unitless GR value; below 1 slowed growth and below 0 cell loss
Type: toxicity, cell-based
Conditions: human, 24 h, 10 µM, compound concentration 10 uM, replicate number 2
I'd be grateful if you could share measured Growth Rate for these entries.

Would you kindly share the measured Growth Rate for CC[C@H](CO)Nc1nc(Nc2cccc(-c3ccccn3)c2)c2ncn(C(C)C)c2n1.Cl.O ?
0

Again, but for CC(F)(F)CN1C(=O)c2[nH]nc(-c3cccc4[nH]c(=O)oc34)c2C1c1ccc(Oc2cc(C(F)(F)F)cc(C(F)(F)F)c2)cc1 (stereo not given)
0.75

CC(=O)Nc1c(F)cc(C(=O)N[C@H]2CC[C@H](O)CC2)cc1O[C@@H](C)c1ccccc1 [GSK046] ?
0.83

What do we get for O=C(O)CCCc1cc2cc(Cl)ccc2n1S(=O)(=O)c1ccc2ncsc2c1 [LANIFIBRANOR] ?
0.63

Let us now turn to Cl.Cl.O=C1c2ccccc2C(Cc2ccncc2)(Cc2ccncc2)c2ccccc21
0.63

###

Tested on: HEK-293T
Test: Incucyte cell viability with HEK293T; also: unitless GR value; below 1 slowed growth and below 0 cell loss
Format: toxicity, cell-based
Conditions: human, 6 h, 10 µM, compound concentration 10 uM, replicate number 1
Please respond with reported Growth Rate for every item in the list.
The answer should be a number; do not append a unit.

So what's the measured Growth Rate for this one? C[C@]12CC[C@@H]3c4ccc(O)cc4CC[C@H]3[C@@H]1C[C@H]1OC(=O)C[C@]12O
0.27

Field entry: CO[C@H]1C[C@@H]2CC[C@@H](C)[C@@](O)(O2)C(=O)C(=O)N2CCCC[C@H]2C(=O)O[C@H]([C@H](C)C[C@@H]2CC[C@@H](O)[C@H](OC)C2)CC(=O)[C@H](C)/C=C(\C)[C@@H](O)[C@@H](OC)C(=O)[C@H](C)C[C@H](C)/C=C/C=C/C=C/1C [SIROLIMUS]
-0.13

Would you kindly repeat that for CN[C@@H](C)C(=O)N[C@H]1CN(C(=O)CC(C)C)CC[C@H]2CC[C@@H](C(=O)NC(c3ccccc3)c3ccccc3)N2C1=O [XEVINAPANT] ?
0.36

Follow-up item: CC(C)(C)OC(=O)CN(Cc1ccc(Cl)cc1)Cc1ccc([N+](=O)[O-])s1 [GSK-4112]
0.86

Thanks! And COc1cc(C(=O)N2CC[C@@H](O)[C@@H](N)C2)cc2nc(-c3cc4ccccc4n3CC3CC3)n(C)c12.Cl ?
0.46

Cool, now CCN1C(=CC(C)=O)Sc2ccc(OC)cc21
0.07

Here is the next compound: COc1cc2nc(C)nc(N[C@H](C)c3cc(N)cc(C(F)(F)F)c3)c2cc1O[C@H]1CCOC1
0.91

###

Test system: U2OS
Assay: Incucyte cell viability with U2OS; also: unitless GR value; below 1 slowed growth and below 0 cell loss
Format: toxicity, cell-based
Settings: human, 18 h, 10 µM, compound concentration 10 uM, replicate number 1
For each record, write down the corresponding Growth Rate.
Write the number on its own, no unit after it.

Need Growth Rate, item CC(C)(O)CNC(=O)N1C(=O)N(c2cccc(C(F)(F)F)c2)C2=C(C(=O)CC2)[C@@H]1c1ccc(C#N)cc1
0.65

Can you check COCCCS(=O)(=O)c1cc(C)c(-c2ccc(F)c3c2CC[C@H]3Oc2ccc3c(c2)OC[C@H]3CC(=O)O)c(C)c1 next?
0.79

Moving on to the next molecule: CCN1CCN(Cc2ccc(C(=O)Nc3ccc(C)c(Oc4ccc5c(c4)CC(=O)N5)c3)cc2C(F)(F)F)CC1.Cl.Cl
0.37

Query CC1CCN(C(=O)[C@H](CCn2cccc2C#N)NS(=O)(=O)c2cccc3[nH]ccc23)CC1 next
0.99

Similarly, C[C@@H]1OCC2(CCN(c3cnc(Sc4ccnc(N)c4Cl)c(N)n3)CC2)[C@@H]1N [BATOPROTAFIB] ?
0.78

And the next one, CCNC1=N[C@@H]2[C@@H](O)[C@H](O)[C@@H](CO)O[C@@H]2S1 ?
0.91

Cool, now Cl.O=C(NCCN1CCC2(CC1)C(=O)NCN2c1cccc(F)c1)c1ccc2ccccc2c1
-0.13

Follow-up entry: Cc1c(N2CCCC2)nc2ccc(Br)cc2c1C(=O)NC[C@H](CCC(=O)O)c1ccccc1Cl [BAY-6672]
0.67
